# System: pERK, HCT116 cells
# assayDetails: Phospho-ERK inhibition, AlphaLISA p-ERK 1/2, HCT-116
# Format: cell-based, human
# testParameters: Table 3; lowest % inhibition value of the pERK IC50 curve; above −20% = no paradoxical induction
Listing of recorded HCT116 pERK (Ymin %) by entry.
Please respond with the number in % and leave the unit unwritten.

Here is how some compounds turned out for HCT116 pERK (Ymin %).
                                   compound  resultunit  recordednumber
0  CN1CC2CCC(C1)N2C(=O)c1cn(-c2nc3c(Nc4c(F)ccc(NS(=O)(=O)c5cccc(Cl)c5Cl)c4F)ncnc3s2)c2ccccc12           %               0
1  COCCNS(=O)(=O)c1cn(-c2nc3c(Nc4c(F)ccc(NS(=O)(=O)c5cccc(Cl)c5Cl)c4F)ncnc3s2)c2ccccc12           %               2
2  O=S(=O)(Nc1ccc(F)c(Nc2ncnc3sc(-n4cnc5c(F)cccc54)nc23)c1F)c1ccccc1Cl           %              −6
3  O=C(c1cn(-c2nc3c(Nc4c(F)ccc(NS(=O)(=O)c5cccc(Cl)c5Cl)c4F)ncnc3s2)c2ccccc12)N1CCC2CCCCC2(O)C1 (stereo not drawn)           %             −16
4  O=S(=O)(Nc1ccc(F)c(Nc2ncnc3sc(-n4cnc(-c5ccccc5)c4)nc23)c1F)c1cccc(Cl)c1Cl           %             −13

Field: next compound
-- ask // lookup HCT116 pERK (Ymin %) for `O=S(=O)(Nc1ccc(F)c(Nc2ncnc3sc(-n4cnc5c(-c6cccnc6)cccc54)nc23)c1F)c1cccc(Cl)c1Cl`
-- reply −9

* * *

# systemName: BRAF (Homo sapiens, UniProt P15056)
# Construct: GST; purchased Millipore Sigma B4062-10UG
# Sequence (P15056 whole entry): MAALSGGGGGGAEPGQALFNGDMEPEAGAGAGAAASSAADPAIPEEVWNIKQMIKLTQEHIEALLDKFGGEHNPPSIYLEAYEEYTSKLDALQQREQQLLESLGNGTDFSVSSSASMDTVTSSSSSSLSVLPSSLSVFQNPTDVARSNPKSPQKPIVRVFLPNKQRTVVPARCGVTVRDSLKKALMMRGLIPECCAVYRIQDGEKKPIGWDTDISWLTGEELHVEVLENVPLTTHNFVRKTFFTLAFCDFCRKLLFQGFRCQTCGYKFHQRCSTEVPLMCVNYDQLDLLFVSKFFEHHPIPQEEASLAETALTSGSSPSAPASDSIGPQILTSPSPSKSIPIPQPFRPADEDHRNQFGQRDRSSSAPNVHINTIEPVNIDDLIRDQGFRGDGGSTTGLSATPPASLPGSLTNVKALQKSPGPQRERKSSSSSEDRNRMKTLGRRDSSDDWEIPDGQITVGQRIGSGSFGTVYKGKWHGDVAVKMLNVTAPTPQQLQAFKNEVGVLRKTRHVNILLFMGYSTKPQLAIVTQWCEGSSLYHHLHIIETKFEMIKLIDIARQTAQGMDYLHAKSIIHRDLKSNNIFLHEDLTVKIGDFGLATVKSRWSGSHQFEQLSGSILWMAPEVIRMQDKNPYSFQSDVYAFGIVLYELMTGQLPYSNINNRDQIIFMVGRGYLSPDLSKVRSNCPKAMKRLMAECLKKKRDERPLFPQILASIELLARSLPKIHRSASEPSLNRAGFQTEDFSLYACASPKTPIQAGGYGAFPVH
# assayDetails: BRAF kinase activity assay (ADP-Glo)
# Format: biochemical
# testParameters: Table 4; 10 μM ATP, kinase-dead MEK1 substrate
# Method: Compound preparation: solid samples of each substance in 1dram vials were suspended in DMSO (Fisher Scientific) at a stock concentration of 20 mM. Stocks were kept at −20° C. and protected from light. […] BRAF and CRAF kinase reactions were carried out for a total of 2 hours at 30° C. and then stopped by 1/2 dilution in ADP-Glo Reagent (cat. No. V9102; Promega; part V912C). […] The effect of each compound dilution on BRAF and CRAF kinase activity was expressed as % inhibition and calculated as follows. […]
assayEndpoint: IC50

-- ask Find the recorded IC50 belonging to `O=S(=O)(Nc1cc(F)c(F)c(Nc2ncnc3sc(-n4cnc5ccccc54)nc23)c1F)c1cccc(Cl)c1Cl` and report it.
-- reply 1 to 10 nM

* * *

# systemName: BRAF (Homo sapiens)
# Construct: GST; purchased Millipore Sigma B4062-10UG
# assayDetails: BRAF kinase activity assay (ADP-Glo)
# Assay type: biochemical
# testParameters: Table 3; 10 μM ATP, kinase-dead MEK1 substrate
assayEndpoint: IC50

# example entries with known answers
>>> print(df.to_string())
                                givensmiles      result
0  O=S(=O)(Nc1ccc(F)c(Nc2ncnc3sc(-n4cc(S(=O)(=O)N5CC(CO)C5)c5ccccc54)nc23)c1F)c1cccc(Cl)c1Cl  1 to 10 nM
1  COCCN(C)C(=O)c1nn(-c2nc3c(Nc4c(F)ccc(NS(=O)(=O)c5cccc(F)c5C)c4F)ncnc3s2)c2ccccc12     > 10 nM
2  COCCN(C)C(=O)c1cn(-c2nc3c(Nc4c(F)ccc(NS(=O)(=O)c5cccc(F)c5C)c4F)ncnc3s2)c2ccccc12      < 1 nM

-- ask BRAF (Homo sapiens) / IC50 / `Cc1c(Cl)cccc1S(=O)(=O)Nc1ccc(F)c(Nc2ncnc3sc(-n4cnc5c(N)cccc54)nc23)c1F` : value?
-- reply 1 to 10 nM

-- ask Please give the result for `Cc1c(F)cccc1S(=O)(=O)Nc1ccc(F)c(Nc2ncnc3sc(-n4cc(C(=O)NCc5cccnc5)c5ccccc54)nc23)c1F` too.
-- reply > 10 nM

-- ask Next compound up: `Nc1ncccc1-c1cccc2c1ncn2-c1nc2c(Nc3c(F)ccc(NS(=O)(=O)c4cccc(Cl)c4Cl)c3F)ncnc2s1`
-- reply 1 to 10 nM

* * *

# systemName: BRAF (Homo sapiens)
# Construct: GST; purchased Millipore Sigma B4062-10UG
# assayDetails: BRAF kinase activity assay (ADP-Glo)
# Assay type: biochemical
# testParameters: Table 3; 10 μM ATP, kinase-dead MEK1 substrate
assayEndpoint: IC50

Example cases with answers are listed next.
>>> print(df.to_string())
                                givensmiles  assayendpoint      result
0  COc1ccc(S(=O)(=O)Nc2ccc(F)c(Nc3ncnc4sc(-n5cnc6c(N)cccc65)nc34)c2F)c(C)c1Cl           IC50  1 to 10 nM
1  COCCNS(=O)(=O)c1cn(-c2nc3c(Nc4c(F)ccc(NS(=O)(=O)c5cccc(Cl)c5Cl)c4F)ncnc3s2)c2ccccc12           IC50  1 to 10 nM
2  O=C(c1cn(-c2nc3c(Nc4c(F)ccc(NS(=O)(=O)c5cccc(Cl)c5Cl)c4F)ncnc3s2)c2ccccc12)N1CC2(CCOCC2)C1           IC50  1 to 10 nM
3  CN(Cc1cccnc1)C(=O)c1cn(-c2nc3c(Nc4c(F)ccc(NS(=O)(=O)c5cccc(Cl)c5Cl)c4F)ncnc3s2)c2ccccc12           IC50  1 to 10 nM
4  Cc1c(Cl)cccc1S(=O)(=O)Nc1ccc(F)c(Nc2ncnc3sc(-n4cnc5c(F)cccc54)nc23)c1F           IC50  1 to 10 nM

-- ask So what IC50 did `O=S(=O)(Nc1ccc(F)c(Nc2ncnc3sc(-n4cc(S(=O)(=O)N5CC(C(F)F)C5)c5ccccc54)nc23)c1F)c1cccc(Cl)c1Cl` get with BRAF (Homo sapiens)?
-- reply > 10 nM

* * *

# systemName: CRAF (Homo sapiens)
# Construct: fused on or other part: GST tag (N-terminal according to the vendor's product)
# Sequence (P04049 whole entry Y340E/Y341E, form open, the tested form may be a part): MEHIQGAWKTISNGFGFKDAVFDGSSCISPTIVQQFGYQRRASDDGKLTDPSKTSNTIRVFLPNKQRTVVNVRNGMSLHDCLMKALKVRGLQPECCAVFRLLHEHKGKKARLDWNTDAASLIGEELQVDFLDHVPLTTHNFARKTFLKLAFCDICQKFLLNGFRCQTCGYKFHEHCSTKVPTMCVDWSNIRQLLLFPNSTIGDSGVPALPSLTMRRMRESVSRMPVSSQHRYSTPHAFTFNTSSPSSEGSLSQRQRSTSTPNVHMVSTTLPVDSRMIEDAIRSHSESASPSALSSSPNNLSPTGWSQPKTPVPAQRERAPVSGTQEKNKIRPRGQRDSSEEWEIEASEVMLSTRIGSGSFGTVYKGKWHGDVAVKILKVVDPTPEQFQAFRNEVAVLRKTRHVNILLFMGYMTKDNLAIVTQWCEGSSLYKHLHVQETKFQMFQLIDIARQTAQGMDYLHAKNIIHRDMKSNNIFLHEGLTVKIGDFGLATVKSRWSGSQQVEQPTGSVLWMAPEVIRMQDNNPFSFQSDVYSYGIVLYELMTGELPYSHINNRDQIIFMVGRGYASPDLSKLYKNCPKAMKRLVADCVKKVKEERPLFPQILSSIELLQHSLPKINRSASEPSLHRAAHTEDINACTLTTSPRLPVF
# assayDetails: CRAF kinase activity assay (ADP-Glo)
# Format: biochemical
# testParameters: Table 3; 10 μM ATP, kinase-dead MEK1 substrate
pIC50: −log10 of the molar value.
assayEndpoint: pIC50

Previously resolved entries follow.
>>> df
                                givensmiles        result
0  COCCN(C)S(=O)(=O)c1cn(-c2nc3c(Nc4c(F)ccc(NS(=O)(=O)c5cccc(Cl)c5Cl)c4F)ncnc3s2)c2ccccc12  7.30 to 8.00
1  NS(=O)(=O)c1cn(-c2nc3c(Nc4c(F)ccc(NS(=O)(=O)c5cccc(Cl)c5Cl)c4F)ncnc3s2)c2ccccc12        > 8.00
2  O=S(=O)(Nc1ccc(F)c(Nc2ncnc3sc(-n4cnc5c(F)cccc54)nc23)c1F)c1ccccc1Cl        > 8.00
3  O=S(=O)(Nc1ccc(F)c(Nc2ncnc3sc(-n4cnc5c(N6CCNCC6)cccc54)nc23)c1F)c1cccc(Cl)c1Cl        > 8.00
4  O=S(=O)(Nc1ccc(F)c(Nc2ncnc3sc(-n4cnc5c(OCCO)cccc54)nc23)c1F)c1cccc(Cl)c1Cl        > 8.00
5  O=S(=O)(Nc1ccc(F)c(Nc2ncnc3sc(-n4cnc5c(C(F)(F)F)cccc54)nc23)c1F)c1cccc(Cl)c1Cl  7.30 to 8.00

-- ask Request the reported pIC50 associated with `Cc1c(Cl)cccc1S(=O)(=O)Nc1ccc(F)c(Nc2ncnc3sc(-n4cnc5ccccc54)nc23)c1F`
-- reply > 8.00

* * *

# Test system: pERK, HCT116 cells
# assayDetails: Phospho-ERK inhibition, AlphaLISA p-ERK 1/2, HCT-116
# Format: cell-based, human
# testParameters: Table 3; lowest % inhibition value of the pERK IC50 curve; above −20% = no paradoxical induction
assayEndpoint: HCT116 pERK (Ymin %)
Response body: numeric value in %, unit text excluded.

Here's what some known entries look like.
>>> df
                                givensmiles  recordednumber
0  CCC1(O)CCN(c2cccc3c2ncn3-c2nc3c(Nc4c(F)ccc(NS(=O)(=O)c5cccc(Cl)c5Cl)c4F)ncnc3s2)CC1              16
1  CN(Cc1ccncc1)S(=O)(=O)c1cn(-c2nc3c(Nc4c(F)ccc(NS(=O)(=O)c5cccc(Cl)c5Cl)c4F)ncnc3s2)c2ccccc12               4

As a next step, examine the compound that follows.
-- ask Query the reported HCT116 pERK (Ymin %) for pERK, HCT116 cells; item: `COCCCN(C)c1cccc2c1ncn2-c1nc2c(Nc3c(F)ccc(NS(=O)(=O)c4cccc(Cl)c4Cl)c3F)ncnc2s1`
-- reply 1
